Each entry below lists one item and its recorded IC50 value.
# Assayed Target: interaction of gp120 with CD4 (Human immunodeficiency virus type 1 group M subtype B, UniProt P04578)
# Procedure Summary: gp120/soluble CD4 enzyme linked immunosorbent assay (ELISA)
# Test Settings: soluble CD4 conjugated to horseradish peroxidase, absorbance at 492 nm, read-out: IC50, inhibition of interaction of gp120 with soluble CD4
Value Kind: IC50 (nM)

[[record]]
smiles_data = "C[C@H](Oc1cccc2ncccc12)C(=O)N1CCN(C(=O)c2ccccc2)C[C@H]1C"
scale_unit = "nM"
measurement = 920

[[record]]
smiles_data = "Cc1n[nH]c2cccc(O[C@@H](C)C(=O)N3CCN(C(=O)c4ccccc4)C[C@H]3C)c12"
scale_unit = "nM"
measurement = 750

[[record]]
smiles_data = "CNC(=O)c1ccc(O[C@@H](C)C(=O)N2CCN(C(=O)c3ccccc3)C[C@H]2C)c(OC)c1"
scale_unit = "nM"
measurement = 1000

